Target: Ba/F3-TPR-MET-D1228N cells (Homo sapiens, UniProt P08581, D1228N, cells depend on it)
Construct: fused on or other part: P12270 (Nucleoprotein TPR)
Sequence (P08581 whole entry D1228N, the tested form may be a part): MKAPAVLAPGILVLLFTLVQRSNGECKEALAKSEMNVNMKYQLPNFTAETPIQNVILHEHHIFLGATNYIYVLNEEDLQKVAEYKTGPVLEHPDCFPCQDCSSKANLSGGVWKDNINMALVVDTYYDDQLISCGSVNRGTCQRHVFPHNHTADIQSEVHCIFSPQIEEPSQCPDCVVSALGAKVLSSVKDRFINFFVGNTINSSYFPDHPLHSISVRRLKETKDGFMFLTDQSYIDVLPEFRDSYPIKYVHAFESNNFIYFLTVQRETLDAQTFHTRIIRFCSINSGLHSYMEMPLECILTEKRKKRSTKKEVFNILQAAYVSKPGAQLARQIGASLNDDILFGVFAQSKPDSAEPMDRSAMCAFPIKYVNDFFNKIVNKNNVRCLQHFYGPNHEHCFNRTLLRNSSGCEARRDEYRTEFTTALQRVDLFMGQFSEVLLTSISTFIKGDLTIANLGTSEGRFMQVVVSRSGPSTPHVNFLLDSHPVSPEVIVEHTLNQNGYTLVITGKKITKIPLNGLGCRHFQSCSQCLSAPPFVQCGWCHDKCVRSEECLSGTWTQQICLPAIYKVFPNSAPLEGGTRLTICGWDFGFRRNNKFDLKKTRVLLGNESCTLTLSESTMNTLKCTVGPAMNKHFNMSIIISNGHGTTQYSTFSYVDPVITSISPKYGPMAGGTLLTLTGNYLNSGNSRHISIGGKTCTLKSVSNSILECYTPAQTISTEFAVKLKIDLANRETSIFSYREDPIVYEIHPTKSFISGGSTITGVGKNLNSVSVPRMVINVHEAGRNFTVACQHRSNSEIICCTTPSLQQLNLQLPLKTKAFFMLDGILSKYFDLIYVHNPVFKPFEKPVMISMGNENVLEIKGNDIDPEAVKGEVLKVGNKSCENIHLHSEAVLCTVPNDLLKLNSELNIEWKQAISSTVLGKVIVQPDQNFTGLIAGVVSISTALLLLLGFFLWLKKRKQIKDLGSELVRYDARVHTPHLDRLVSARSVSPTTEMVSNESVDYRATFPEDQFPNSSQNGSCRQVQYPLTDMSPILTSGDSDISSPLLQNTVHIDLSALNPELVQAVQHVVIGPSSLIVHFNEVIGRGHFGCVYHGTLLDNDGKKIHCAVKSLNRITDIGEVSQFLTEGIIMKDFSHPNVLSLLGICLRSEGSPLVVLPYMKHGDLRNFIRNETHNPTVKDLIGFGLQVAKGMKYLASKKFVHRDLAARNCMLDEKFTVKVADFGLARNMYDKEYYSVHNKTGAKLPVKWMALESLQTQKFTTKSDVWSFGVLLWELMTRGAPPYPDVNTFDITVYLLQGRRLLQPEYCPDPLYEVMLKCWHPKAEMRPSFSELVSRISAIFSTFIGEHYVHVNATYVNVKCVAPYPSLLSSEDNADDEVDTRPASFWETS
Assay: CellTiter-Glo Cell Viability Assay, Ba/F3-TPR-MET-D1228N
Details: 72 hours
property.measured: EC50

Worked examples, 10 compounds total:
| smiles.string | EC50 |
| --- | --- |
| CCOc1ccncc1C(=O)Nc1ccc(Oc2ccnc3cc(OCCCNC)c(OC)cc23)c(F)c1F | ≤ 100 nM |
| CCOc1ccncc1C(=O)Nc1ccc(Oc2ccnc3cc(OCCNC)c(OC)cc23)c(F)c1F | 100 to 1000 nM |
| CNCCOc1cc2nccc(Oc3c(F)cc(NC(=O)c4cnccc4OC)c(F)c3F)c2cc1OC | ≤ 100 nM |
| COc1cc2c(Oc3c(F)cc(NC(=O)c4cnccc4OC4CC4)cc3F)ccnc2cc1OCCO | ≤ 100 nM |
| CCOc1ccncc1C(=O)Nc1cc(F)c(Oc2ccnc3cc(OCCCN(C)C)c(OC)cc23)cc1F | ≤ 100 nM |
| COc1cc2c(Oc3c(F)cc(NC(=O)c4cnc(C)cc4OC4CC4)cc3F)ccnc2cc1OCCO | ≤ 100 nM |
| CNCCOc1cc2nccc(Oc3c(F)cc(NC(=O)c4cnccc4O[C@@H]4CCOC4)cc3F)c2cc1OC | 100 to 1000 nM |
| CCc1ccncc1C(=O)Nc1cc(F)c(Oc2ccnc3cc(OCCNC)c(OC)cc23)c(F)c1 | 100 to 1000 nM |
| CNCCOc1cc2nccc(Oc3c(F)cc(NC(=O)c4cnc(C)cc4OC)cc3F)c2cc1OC | 100 to 1000 nM |
| COc1ccncc1C(=O)Nc1cc(F)c(Oc2ccnc3ccc(O[C@@H](C)CO)cc23)c(F)c1 | ≤ 100 nM |

Give a short answer stating reported EC50 for COc1cc2nccc(Oc3c(F)cc(NC(=O)c4cnccc4OC)cc3F)c2cc1OCC(C)(C)O .
≤ 100 nM

Indicate its recorded EC50; the compound in question is CNCCOc1ccc2c(Oc3c(F)cc(NC(=O)c4cnccc4OC4CC4)c(F)c3F)ccnc2c1
≤ 100 nM

Give the reported EC50 for this compound. COc1cc2c(Oc3c(F)cc(NC(=O)c4c(OC5CC5)ccnc4F)cc3F)ccnc2cc1OCCO
≤ 100 nM

Look up and state reported EC50 for CNCCOc1ccc2c(Oc3c(F)cc(NC(=O)c4cnc(F)cc4OC4CC4)cc3F)ccnc2c1
≤ 100 nM

Provide measured EC50 value, entry: COc1cc2nccc(Oc3c(F)cc(NC(=O)c4cnccc4OCCO)cc3F)c2cc1OC
100 to 1000 nM

Respond only with EC50 recorded for COC[C@H](C)Oc1nc2c(Oc3c(F)cc(NC(=O)c4cnccc4OC)cc3F)ccnc2cc1OC
≤ 100 nM

* * *

Target: Ba/F3-TPR-MET cells (Homo sapiens, UniProt P08581)
Construct: fused on or other part: P12270 (Nucleoprotein TPR)
Sequence (P08581 whole entry, change not shown, the tested form may be a part): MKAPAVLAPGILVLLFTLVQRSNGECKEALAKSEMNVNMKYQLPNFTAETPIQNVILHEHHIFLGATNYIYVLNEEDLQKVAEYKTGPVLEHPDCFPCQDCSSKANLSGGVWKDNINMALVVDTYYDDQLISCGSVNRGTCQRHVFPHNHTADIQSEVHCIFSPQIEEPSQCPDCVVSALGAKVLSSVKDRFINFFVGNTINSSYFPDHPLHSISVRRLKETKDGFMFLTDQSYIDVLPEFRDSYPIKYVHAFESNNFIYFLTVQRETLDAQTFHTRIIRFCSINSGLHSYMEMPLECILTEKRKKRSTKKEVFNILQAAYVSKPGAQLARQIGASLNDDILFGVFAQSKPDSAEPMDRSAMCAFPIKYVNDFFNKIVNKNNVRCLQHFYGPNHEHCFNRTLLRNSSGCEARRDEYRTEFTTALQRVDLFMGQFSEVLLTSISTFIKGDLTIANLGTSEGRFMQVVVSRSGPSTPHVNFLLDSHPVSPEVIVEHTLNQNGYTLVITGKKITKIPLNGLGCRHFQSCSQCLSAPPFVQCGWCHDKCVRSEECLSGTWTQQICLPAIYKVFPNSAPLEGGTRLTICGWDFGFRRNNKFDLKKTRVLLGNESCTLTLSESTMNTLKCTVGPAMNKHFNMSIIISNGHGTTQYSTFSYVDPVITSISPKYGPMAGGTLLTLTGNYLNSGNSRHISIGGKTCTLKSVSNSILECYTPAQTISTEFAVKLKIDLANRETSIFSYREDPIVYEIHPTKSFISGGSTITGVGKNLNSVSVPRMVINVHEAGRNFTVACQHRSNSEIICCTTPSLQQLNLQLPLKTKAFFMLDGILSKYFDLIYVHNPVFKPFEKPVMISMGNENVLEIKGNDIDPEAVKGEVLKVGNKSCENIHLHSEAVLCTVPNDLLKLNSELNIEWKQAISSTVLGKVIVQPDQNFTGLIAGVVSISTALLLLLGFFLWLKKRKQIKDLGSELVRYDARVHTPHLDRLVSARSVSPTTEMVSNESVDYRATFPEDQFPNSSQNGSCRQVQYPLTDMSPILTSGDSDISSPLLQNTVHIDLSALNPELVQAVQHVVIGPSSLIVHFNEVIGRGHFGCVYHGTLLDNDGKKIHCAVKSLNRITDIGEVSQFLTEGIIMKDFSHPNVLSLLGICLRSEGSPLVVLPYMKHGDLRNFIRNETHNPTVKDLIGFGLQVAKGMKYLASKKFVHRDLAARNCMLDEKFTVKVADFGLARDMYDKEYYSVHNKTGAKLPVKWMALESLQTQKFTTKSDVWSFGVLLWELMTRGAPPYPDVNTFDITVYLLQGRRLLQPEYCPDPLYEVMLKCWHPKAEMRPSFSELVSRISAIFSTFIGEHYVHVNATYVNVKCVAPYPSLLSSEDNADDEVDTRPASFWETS
Test: CellTiter-Glo Cell Viability Assay, Ba/F3-TPR-MET
Conditions: 72 hours
property.measured: EC50

Consider the worked cases shown below.
| smiles.string | result |
| --- | --- |
| COCCOc1cc2nccc(Oc3c(F)cc(NC(=O)c4cnccc4OC)cc3F)c2cc1OCCOC | ≤ 100 nM |
| CNCCOc1cc2nccc(Oc3c(F)cc(NC(=O)c4cnc(Cl)cc4OC)cc3F)c2cc1OC | ≤ 100 nM |
| O=C(Nc1cc(F)c(Oc2ccnc3cc(OC4CNC4)ccc23)c(F)c1)c1cnccc1OC1CC1 | 100 to 1000 nM |

// below: EC50 requested for another molecule
Give a short answer stating reported EC50 for COc1cc2c(Oc3c(F)cc(NC(=O)c4cnccc4OC)cc3F)ccnc2cc1OCCO .
≤ 100 nM

* * *

Biological target: Ba/F3-TPR-MET cells (Homo sapiens)
Construct: fused on or other part: P12270 (Nucleoprotein TPR)
Test: CellTiter-Glo Cell Viability Assay, Ba/F3-TPR-MET
Conditions: 72 hours
pEC50: −log10 of the molar value.
property.measured: pEC50

# count of solved cases: 5
| molecule | pEC50 |
| --- | --- |
| CNCCOc1cc2nccc(Oc3c(F)cc(NC(=O)c4cnc(C)cc4OC4CC4)cc3F)c2cc1OC [Example 117] | ≥ 7.00 |
| CCc1ccncc1C(=O)Nc1cc(F)c(Oc2ccnc3cc(OCCNC)c(OC)cc23)c(F)c1 [Example 49] | 6.00 to 7.00 |
| COc1cc2c(Oc3c(F)cc(NC(=O)c4cnccc4OC)cc3F)ccnc2cc1OCCN1CCOCC1 [Example 29] | ≥ 7.00 |
| C[C@H](O)COc1ccc2c(Oc3c(F)cc(NC(=O)c4cnccc4OC4CC4)cc3F)ccnc2c1 [Example 102] | 6.00 to 7.00 |
| CNCCOc1cc2ncnc(Oc3c(F)cc(NC(=O)c4c(OC)ccnc4F)cc3F)c2cc1OC [Example 7] | 5.00 to 6.00 |

Next molecule, please.
Specify reported pEC50 for the molecule shown: O=C(Nc1cc(F)c(Oc2ccnc3cc(OCCO)ccc23)c(F)c1)c1cnccc1OC1CC1 [Example 100]
6.00 to 7.00

* * *

Target: Ba/F3-TPR-MET-D1228N cells (Homo sapiens, UniProt P08581, D1228N, cells depend on it)
Construct: fused on or other part: P12270 (Nucleoprotein TPR)
Experiment: CellTiter-Glo Cell Viability Assay, Ba/F3-TPR-MET-D1228N
Details: 72 hours
The following molecules are listed with their measured EC50 values.

| molecule | assay.system | EC50 |
| --- | --- | --- |
| COc1cc2nccc(Oc3c(F)cc(NC(=O)c4cnccc4OC4CC4)c(F)c3F)c2cc1OC [Example 92] | Ba/F3-TPR-MET-D1228N cells (Homo sapiens, UniProt P08581, D1228N, cells depend on it) | 100 to 1000 nM |
| CNCCCOc1cc2nccc(Oc3c(F)cc(NC(=O)c4cnccc4OC4COC4)cc3F)c2cc1OC [Example 86] | Ba/F3-TPR-MET-D1228N cells (Homo sapiens, UniProt P08581, D1228N, cells depend on it) | 100 to 1000 nM |
| CNCCOc1cc2nccc(Oc3c(F)cc(NC(=O)c4cncnc4OC4CC4)cc3F)c2cc1OC [Example 76] | Ba/F3-TPR-MET-D1228N cells (Homo sapiens, UniProt P08581, D1228N, cells depend on it) | 100 to 1000 nM |
| COc1ccc2c(Oc3c(F)cc(NC(=O)c4cnccc4OC4CC4)cc3F)ccnc2c1 [Example 90] | Ba/F3-TPR-MET-D1228N cells (Homo sapiens, UniProt P08581, D1228N, cells depend on it) | ≤ 100 nM |
| CC(C)(CO)Oc1ccc2c(Oc3c(F)cc(NC(=O)c4cnccc4OC4CC4)cc3F)ccnc2c1 [Example 108] | Ba/F3-TPR-MET-D1228N cells (Homo sapiens, UniProt P08581, D1228N, cells depend on it) | 1000 to 10000 nM |

Please list EC50 recorded for the molecule CNCCOc1cc2nccc(Oc3c(F)cc(NC(=O)c4cnccc4OCC(C)(C)O)cc3F)c2cc1OC [Example 66]
100 to 1000 nM

Item COc1cc2nccc(Oc3c(F)cc(NC(=O)c4cnccc4OC)cc3F)c2cc1O[C@H](C)CO [Example 131] : provide EC50
≤ 100 nM

Provide EC50 value for the following molecule: CNCCOc1cc2nccc(Oc3cc(F)c(NC(=O)c4cnccc4OC)cc3F)c2cc1OC [Example 24]
≤ 100 nM

* * *

Target: Ba/F3-TPR-MET-D1228N cells (Homo sapiens, UniProt P08581, D1228N, cells depend on it)
Construct: fused on or other part: P12270 (Nucleoprotein TPR)
Experiment: CellTiter-Glo Cell Viability Assay, Ba/F3-TPR-MET-D1228N
Conditions: 72 hours
pEC50: −log10 of the molar value.
property.measured: pEC50

Provide only the value of recorded pEC50 for COc1cc2c(Oc3c(F)cc(NC(=O)c4cnccc4OC)cc3F)ccnc2cc1OC(F)F
< 5.00

Answer with the recorded pEC50 of CNCCOc1cc2nccc(Oc3c(F)cc(NC(=O)c4cnc(C)cc4OC4CC4)cc3F)c2cc1OC only.
≥ 7.00

For the molecule COc1cc2c(Oc3c(F)cc(NC(=O)c4cnccc4OC)cc3F)ccnc2cc1OCCN1CCOCC1 , report pEC50.
≥ 7.00

Find the measured pEC50 of COCCOc1ccc2c(Oc3c(F)cc(NC(=O)c4cnccc4OC4CC4)cc3F)ccnc2c1 and report it.
≥ 7.00

* * *

Target: Ba/F3-TPR-MET cells (Homo sapiens)
Construct: fused on or other part: P12270 (Nucleoprotein TPR)
Assay: CellTiter-Glo Cell Viability Assay, Ba/F3-TPR-MET
Conditions: 72 hours
property.measured: EC50

| smiles.string | property.measured | result |
| --- | --- | --- |
| CNCCCOc1cc2nccc(Oc3c(F)cc(NC(=O)c4cnccc4OC4COC4)cc3F)c2cc1OC | EC50 | 100 to 1000 nM |
| CNCCOc1cc2nccc(Oc3c(F)cc(NC(=O)c4cnc(C)cc4OC)cc3F)c2cc1OC | EC50 | 100 to 1000 nM |
| COc1cc2nccc(Oc3c(F)cc(NC(=O)c4cnccc4OC4CC4)cc3F)c2cc1O[C@@H](C)CO | EC50 | ≤ 100 nM |

Note EC50 for the compound shown: COc1cc2c(Oc3c(F)cc(NC(=O)c4c(OC5CC5)ccnc4F)cc3F)ccnc2cc1OCCO
≤ 100 nM

In one line, give reported EC50 of the entry CNCCCOc1cc2nccc(Oc3c(F)cc(NC(=O)c4cnccc4OC4CCC4)cc3F)c2cc1OC .
100 to 1000 nM

Please report the measured EC50 for COc1cc2c(Oc3c(F)cc(NC(=O)c4cnccc4OCC(F)F)cc3F)ccnc2cc1OCCO
≤ 100 nM

Give recorded EC50. COc1cc2nccc(Oc3c(F)cc(NC(=O)c4cnccc4OCCO)cc3F)c2cc1OC
100 to 1000 nM

Fill in reported EC50 for this entry: CNCCOc1cc2nccc(Oc3c(F)cc(NC(=O)c4cnccc4OC(C)C)cc3F)c2cc1OC
≤ 100 nM

src = patent US11753395B2
